Tested on: 13F2 (fetal-II hepatoblastoma organoid with high liver markers)
measurement-description: area under the viability dose-response curve (AUC) (AUC (arbitrary units, max 500 = no viability loss)); higher = less sensitive (higher viability)
study-conditions: exposure time: 120 h; concentration range: 0.1 nM - 10 µM, 6 doses
In this section, each of the compounds is paired with its reported area under the viability dose-response curve.
observed-property: area under the viability dose-response curve

>>> print(df.to_string())
                           substance_smiles  data_value
0  CS(=O)(=O)CCNCc1ccc(-c2ccc3ncnc(Nc4ccc(OCc5cccc(F)c5)c(Cl)c4)c3c2)o1         388
1  CCNC(=O)C[C@@H]1N=C(c2ccc(Cl)cc2)c2cc(OC)ccc2-n2c(C)nnc21         389
2  COc1cc(N2CCC(N3CCN(C)CC3)CC2)ccc1Nc1ncc(Cl)c(Nc2ccccc2P(C)(C)=O)n1         388
3               O=C(CCCCCCC(=O)Nc1ccccc1)NO         400

----------
Tested on: 135F2 (fetal-II hepatoblastoma organoid with high liver markers)
measurement-description: area under the viability dose-response curve (AUC) (AUC (arbitrary units, max 500 = no viability loss)); higher = less sensitive (higher viability)
study-conditions: exposure time: 120 h; concentration range: 0.1 nM - 10 µM, 6 doses
observed-property: area under the viability dose-response curve

In [3]: df
Out[3]:
                                    compound  modifier_sign  data_value
 0  O=c1cc(-c2cccc3c2Sc2ccccc2S3)oc(N2CCOCC2)c1              >         500
 1  Cc1c(Cl)ccc2c1N=C/C2=C\c1[nH]c(=O)n(C(C(=O)NC(CO)CO)c2ccc(F)c(F)c2)c1O (stereo unspecified) [RO-5963]              =         459
 2  COc1cccc(OCCCN)c1-c1cc(Nc2cnc(C#N)cn2)n[nH]1 [Prexasertib]              =         324
 3  Cn1nccc1Nc1nccc(-c2cc3c(s2)C(C)(C)N(CCN2CCOCC2)C3=O)n1 [Temuterkib]              =         409
 4  O=C(O)C1(C(=O)O)CCC1.[NH2-].[NH2-].[Pt+2] [Carboplatin]              =         494
 5  Cn1ncnc1[C@H]1c2n[nH]c(=O)c3cc(F)cc(c23)N[C@@H]1c1ccc(F)cc1 [Talazoparib]              =         392
 6  CC1(COc2ccc3c(c2)ncn3-c2ccc3cccc(N4CCC(N)CC4)c3n2)COC1 [Crenolanib]              =         448
 7  Cc1ccc(NC(=O)c2ccc(CN3CCN(C)CC3)cc2)cc1Nc1nccc(-c2cccnc2)n1 [Imatinib]              =         478
 8  CCOc1cc2ncc(C#N)c(Nc3ccc(OCc4ccccn4)c(Cl)c3)c2cc1NC(=O)/C=C/CN(C)C [Neratinib]              =         462
 9  CN(C)C/C=C/C(=O)Nc1cc2c(Nc3ccc(F)c(Cl)c3)ncnc2cc1O[C@H]1CCOC1 [Afatinib]              =         442
10  NS(=O)(=O)OC[C@@H]1C[C@@H](n2ccc3c(N[C@H]4CCc5ccccc54)ncnc32)C[C@@H]1O [Pevonedistat]              =         342

----------
Tested on: 135F2
measurement-description: area under the viability dose-response curve (AUC) (AUC (arbitrary units, max 500 = no viability loss)); higher = less sensitive (higher viability)
study-conditions: exposure time: 120 h; concentration range: 0.1 nM - 10 µM, 6 doses
In this section, each of the compounds is paired with its reported area under the viability dose-response curve.
observed-property: area under the viability dose-response curve

compound	data-value
C[C@@H]1COC(Nc2ccc3ncnc(Nc4ccc(OCc5nccs5)c(Cl)c4)c3c2)=N1	465
CCc1c2c(nc3ccc(O)cc13)-c1cc3c(c(=O)n1C2)COC(=O)[C@]3(O)CC	156
Cc1ccc(C(=O)Nc2ccc(Oc3cc4cnn(C)c4cc3-c3cn[nH]c3)c(F)c2)c(=O)n1-c1ccc(F)cc1	487
N#CC1(c2ccc(NC(=O)c3cccnc3NCc3ccncc3)cc2)CCCC1	470
O=C(Nc1cnn2ccc(N3CCC[C@@H]3c3cc(F)ccc3F)nc12)N1CC[C@H](O)C1	495
Cc1sc2c(c1C)C(c1ccc(Cl)cc1)=N[C@@H](CC(N)=O)c1nnc(C)n1-2	334
O=C(c1cc(Cc2n[nH]c(=O)c3ccccc23)ccc1F)N1CCN(C(=O)C2CC2)CC1	492
O=C1NC(=O)[C@@H](c2cn3c4c(cccc24)CCC3)[C@@H]1c1c[nH]c2ccccc12 [Tivantinib]	367
CC1=C(/C=C/C(C)=C/C=C/C(C)=C\C(=O)O)C(C)(C)CCC1	496
Cc1ccc2c(Nc3cccc(Cl)c3F)nccc2c1NC(=O)c1csc2c(N)ncnc12	389
COc1cc2c(cc1O)CCN[C@]21CS[C@@H]2c3c(OC(C)=O)c(C)c4c(c3[C@H](COC1=O)N1[C@@H]2[C@H]2c3c(cc(C)c(OC)c3O)C[C@@H]([C@@H]1O)N2C)OCO4	57.9

----------
In this section, each of the molecules is paired with its reported area under the viability dose-response curve.
Tested on: 17F1 (fetal-I hepatoblastoma organoid with intermediate liver markers)
measurement-description: area under the viability dose-response curve (AUC) (AUC (arbitrary units, max 500 = no viability loss)); higher = less sensitive (higher viability)
study-conditions: exposure time: 120 h; concentration range: 0.1 nM - 10 µM, 6 doses
observed-property: area under the viability dose-response curve

molecule	data-value
O=P1(N(CCCl)CCCl)NC(OO)CCO1 (centres undefined) [4-Hydroperoxy cyclophosphamide (Cyclophosphamide)]	> 500
CC1=C(/C=C/C(C)=C/C=C/C(C)=C\C(=O)O)C(C)(C)CCC1	> 500
C[C@@H]1CN(CC(=O)Nc2ccc3c(c2)Cc2cccc(-c4cc(=O)cc(N5CCOCC5)o4)c2S3)C[C@H](C)O1	> 500
CC(C)(C)c1nc(-c2cccc(NS(=O)(=O)c3c(F)cccc3F)c2F)c(-c2ccnc(N)n2)s1	> 500
O=C(c1cc(Cc2n[nH]c(=O)c3ccccc23)ccc1F)N1CCN(C(=O)C2CC2)CC1	> 500
CC1(C)CCC2(CC1)N[C@@H](C(=O)N[C@@H]1CC[C@@H](C(N)=O)OC1)[C@H](c1ccnc(Cl)c1F)[C@]21C(=O)Nc2cc(Cl)ccc21	376
O=C(Nc1cnn2ccc(N3CCC[C@@H]3c3cc(F)ccc3F)nc12)N1CC[C@H](O)C1	467
O=C(O)C(=O)O.[NH-][C@@H]1CCCC[C@H]1[NH-].[Pt+2]	> 500
CN1CCN(CCOc2cc(OC3CCOCC3)c3c(Nc4c(Cl)ccc5c4OCO5)ncnc3c2)CC1	493
Nc1ncccc1-c1nc2ccc(-c3ccccc3)nc2n1-c1ccc(C2(N)CCC2)cc1	494
O=C(/C=C\n1cnc(-c2cc(C(F)(F)F)cc(C(F)(F)F)c2)n1)NNc1cnccn1 [Selinexor]	443
Cn1nccc1Nc1nccc(-c2ccn([C@H](CO)c3ccc(Cl)c(F)c3)c(=O)c2)n1	> 500
CC(C)c1c(-c2ccccc2)nc2c(C#N)c[nH]n2c1=O	498
Oc1nc(-c2ccc(C(F)(F)F)cc2)nc2c1CSCC2	> 500
Cc1c2oc3c(C)ccc(C(=O)N[C@@H]4C(=O)N[C@H](C(C)C)C(=O)N5CCC[C@H]5C(=O)N(C)CC(=O)N(C)[C@@H](C(C)C)C(=O)O[C@@H]4C)c3nc-2c(C(=O)N[C@@H]2C(=O)N[C@H](C(C)C)C(=O)N3CCC[C@H]3C(=O)N(C)CC(=O)N(C)[C@@H](C(C)C)C(=O)O[C@@H]2C)c(N)c1=O	187
CNC(=O)c1cc(Oc2ccc(NC(=O)Nc3ccc(Cl)c(C(F)(F)F)c3)c(F)c2)ccn1	428
CCn1cc(-c2cccc(C(F)(F)F)c2)c2sc(C(=N)NC3CCS(=O)(=O)CC3)cc2c1=O	490
O=C(NC1CCNCC1)c1n[nH]cc1NC(=O)c1c(Cl)cccc1Cl	381
Cc1cc(-c2ncc(CC(=O)Nc3ccc(-c4cnccn4)cn3)cc2C)ccn1	497

----------
Test system: 13F2
measurement-description: area under the viability dose-response curve (AUC) (AUC (arbitrary units, max 500 = no viability loss)); higher = less sensitive (higher viability)
study-conditions: exposure time: 120 h; concentration range: 0.1 nM - 10 µM, 6 doses
In this section, each of the compounds is paired with its reported area under the viability dose-response curve.
observed-property: area under the viability dose-response curve

>>> df
                                   compound  data_value
0  Nc1cc(F)ccc1NC(=O)c1ccc(CNC(=O)/C=C/c2cccnc2)cc1 [Epidaza]         426
1  COc1cc2nccc(Oc3ccc(NC(=O)C4(C(=O)Nc5ccc(F)cc5)CC4)cc3)c2cc1OC [Cabozantinib]         442
2  Nc1ncccc1-c1nc2ccc(-c3ccccc3)nc2n1-c1ccc(C2(N)CCC2)cc1         422
3  C[C@@H](c1ccc2nccn2c1)n1nnc2ncc(-c3cnn(C)c3)nc21       > 500
4  COCC[n+]1c2c(n(Cc3cnccn3)c1C)C(=O)c1ccccc1C2=O [Sepantronium bromide]         395
